# reported Reactivity (OD 492 nm); entries follow
Biological target: T1, HCV bt-134-154 (Peptide 1, HCVc 134-154) (Hepatitis C virus (numbering per HCV-1), biotin (carboxy-terminal per; N-terminal per))
T1 peptide: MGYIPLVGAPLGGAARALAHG
Assay: EIA, captured mAb + biotin peptide

- binder: "HCV 208B-560 (antibody, V domains shown) VH: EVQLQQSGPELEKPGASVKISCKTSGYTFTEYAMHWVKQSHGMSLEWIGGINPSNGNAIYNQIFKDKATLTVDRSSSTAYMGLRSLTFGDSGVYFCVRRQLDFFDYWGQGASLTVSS VL: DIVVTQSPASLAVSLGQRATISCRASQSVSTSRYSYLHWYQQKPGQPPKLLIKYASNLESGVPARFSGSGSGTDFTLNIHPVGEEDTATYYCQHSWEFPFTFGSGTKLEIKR"
  unit spec: "OD units"
  Reactivity (OD 492 nm): 0.11
- binder: "HCV 208B-327 (antibody, V domains shown) VH: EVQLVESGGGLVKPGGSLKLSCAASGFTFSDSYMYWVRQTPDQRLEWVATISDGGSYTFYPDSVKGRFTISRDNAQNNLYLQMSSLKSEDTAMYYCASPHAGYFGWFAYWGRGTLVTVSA VL: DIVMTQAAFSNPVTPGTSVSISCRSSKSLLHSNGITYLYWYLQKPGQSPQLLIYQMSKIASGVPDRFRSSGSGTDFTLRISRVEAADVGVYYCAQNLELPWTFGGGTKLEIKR"
  unit spec: "OD units"
  Reactivity (OD 492 nm): 0.07
- binder: "HCV 208B-395 (antibody, V domains shown) VH: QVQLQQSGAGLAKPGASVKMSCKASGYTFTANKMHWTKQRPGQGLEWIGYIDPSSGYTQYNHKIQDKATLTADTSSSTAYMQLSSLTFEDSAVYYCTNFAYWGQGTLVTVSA VL: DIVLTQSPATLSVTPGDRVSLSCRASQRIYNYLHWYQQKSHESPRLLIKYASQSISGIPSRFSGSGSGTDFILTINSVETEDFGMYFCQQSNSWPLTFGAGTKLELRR"
  unit spec: "OD units"
  Reactivity (OD 492 nm): 0.54

Where do these numbers come from? They come from patent US20170052184A1.
